Data origin: ChEMBL document CHEMBL2407049

Tested on: Klebsiella pneumoniae
Test: Antibacterial activity against Klebsiella pneumoniae ATCC 10031 assessed as concentration required to inhibit bacterial growth after 24 hrs by TLC assay
Assay type: functional
Readings of Activity for the listed compounds
MEASUREMENT KIND: Activity

>>> readout_value("COC(=O)[C@H](Cc1ccccc1)NC(=O)[C@H](NC(=O)[C@H](CC(C)C)N(C)C)[C@H](Oc1ccc(C=O)cc1)c1ccccc1 (mixture of isomers)")
"<50 µg"
>>> readout_value("COC(=O)[C@H](CC(C)C)NC(=O)[C@H](NC(=O)[C@H](CC(C)C)NC(=O)OCc1ccccc1)[C@@H](O)c1ccccc1 (mixture of isomers)")
"<50 µg"
>>> readout_value("COC(=O)[C@H](Cc1ccccc1)NC(=O)[C@H]([C@@H](Oc1ccc(C=O)cc1)c1ccccc1)N1CN(C)[C@@H](CC(C)C)C1=O (mixture of isomers)")
"<50 µg"
>>> readout_value("COC(=O)[C@H](CC(C)C)NC(=O)[C@@H]([C@H](Oc1ccc(C=O)cc1)c1ccccc1)N1CN(C)[C@@H](CC(C)C)C1=O (mixture of isomers)")
"<50 µg"
>>> readout_value("CC(C)C[C@@H]1NC(=O)[C@@H](NC(=O)[C@H](CC(C)C)N(C)C)[C@H](c2ccccc2)Oc2ccc(cc2)/C=C\\NC1=O (mixture of isomers)")
">50 µg"
>>> readout_value("COC(=O)[C@H](CC(C)C)NC(=O)[C@@H]([C@@H](O)c1ccccc1)N1CN(C)[C@@H](CC(C)C)C1=O (mixture of isomers)")
"<50 µg"
>>> readout_value("CC[C@H](C)[C@H](NC(=O)[C@H](NC(=O)[C@@H](N)CC(C)C)[C@@H](O)c1ccccc1)C(=O)OC")
"<50 µg"
>>> readout_value("COC(=O)[C@H](CC(C)C)NC(=O)[C@H](NC(=O)[C@H](CC(C)C)N(C)C)[C@@H](O)c1ccccc1 (mixture of isomers)")
"<50 µg"
>>> readout_value("CC[C@H](C)[C@H](NC(=O)[C@@H]([C@@H](O)c1ccccc1)N1CN(C)[C@@H](CC(C)C)C1=O)C(=O)OC (mixture of isomers)")
"<50 µg"
>>> readout_value("CC[C@H](C)[C@H](NC(=O)[C@@H]([C@H](Oc1ccc(C=O)cc1)c1ccccc1)N1CN(C)[C@@H](CC(C)C)C1=O)C(=O)OC (mixture of isomers)")
"<50 µg"
>>> readout_value("CC(C)C[C@@H](C(=O)N[C@@H]1C(=O)N[C@@H](Cc2ccccc2)C(=O)N/C=C\\c2ccc(cc2)O[C@H]1c1ccccc1)N(C)C")
">50 µg"
>>> readout_value("COC(=O)[C@H](Cc1ccccc1)NC(=O)[C@@H](NC(=O)[C@H](CC(C)C)N(C)C)[C@@H](Oc1ccc(C=O)cc1)c1ccccc1 (mixture of isomers)")
"<50 µg"

====

Below, each entry is listed alongside its reported Activity.
Tested on: Staphylococcus epidermidis
Assay: Antibacterial activity against Staphylococcus epidermidis ATCC 12228 assessed as concentration required to inhibit bacterial growth after 24 hrs by TLC assay
Format: functional
MEASUREMENT KIND: Activity

>>> readout_value("CC[C@H](C)[C@H](NC(=O)[C@H](NC(=O)[C@@H](N)CC(C)C)[C@@H](O)c1ccccc1)C(=O)OC")
"<50 µg"
>>> readout_value("CC[C@H](C)[C@H](NC(=O)[C@@H](NC(=O)[C@H](CC(C)C)N(C)C)[C@@H](Oc1ccc(C=O)cc1)c1ccccc1)C(=O)OC")
"<50 µg"
>>> readout_value("CC[C@H](C)[C@H](NC(=O)[C@H](NC(=O)[C@H](CC(C)C)NC(=O)OCc1ccccc1)[C@@H](O)c1ccccc1)C(=O)OC (mixture of isomers)")
"<50 µg"
>>> readout_value("CC(C)C[C@@H](C(=O)N[C@@H]1C(=O)N[C@@H](Cc2ccccc2)C(=O)N/C=C\\c2ccc(cc2)O[C@H]1c1ccccc1)N(C)C")
">50 µg"
>>> readout_value("COC(=O)[C@H](Cc1ccccc1)NC(=O)[C@H](NC(=O)[C@H](CC(C)C)N(C)C)[C@H](Oc1ccc(C=O)cc1)c1ccccc1 (mixture of isomers)")
"<50 µg"
>>> readout_value("CC[C@H](C)[C@@H]1NC(=O)[C@@H](NC(=O)[C@H](CC(C)C)N(C)C)[C@H](c2ccccc2)Oc2ccc(cc2)/C=C\\NC1=O (mixture of isomers)")
">50 µg"
>>> readout_value("COC(=O)[C@H](Cc1ccccc1)NC(=O)[C@H]([C@@H](Oc1ccc(C=O)cc1)c1ccccc1)N1CN(C)[C@@H](CC(C)C)C1=O (mixture of isomers)")
"<50 µg"
>>> readout_value("CC[C@H](C)[C@H](NC(=O)[C@@H]([C@@H](O)c1ccccc1)N1CN(C)[C@@H](CC(C)C)C1=O)C(=O)OC (mixture of isomers)")
"<50 µg"

====

Tested on: Klebsiella pneumoniae
Experiment: Antibacterial activity against Klebsiella pneumoniae ATCC 10031 assessed as concentration required to inhibit bacterial growth after 24 hrs by TLC assay
Assay type: functional
MEASUREMENT KIND: Activity

>>> readout_value("COC(=O)[C@H](CC(C)C)NC(=O)[C@H](NC(=O)[C@@H](N)CC(C)C)[C@@H](O)c1ccccc1")
"<50 µg"
>>> readout_value("COC(=O)[C@H](Cc1ccccc1)NC(=O)[C@H]([C@H](O)c1ccccc1)N1CN(C)[C@@H](CC(C)C)C1=O")
"50 µg"
>>> readout_value("COC(=O)[C@H](Cc1ccccc1)NC(=O)[C@@H]([C@@H](O)c1ccccc1)N1CN(C)[C@@H](CC(C)C)C1=O (mixture of isomers)")
"6.2 µg"
>>> readout_value("CC[C@H](C)[C@H](NC(=O)[C@H]([C@@H](Oc1ccc(C=O)cc1)c1ccccc1)N1CN(C)[C@@H](CC(C)C)C1=O)C(=O)OC (mixture of isomers)")
"<50 µg"
>>> readout_value("CC[C@H](C)[C@H](NC(=O)[C@H](NC(=O)[C@H](CC(C)C)NC(=O)OCc1ccccc1)[C@@H](O)c1ccccc1)C(=O)OC (mixture of isomers)")
"<50 µg"
>>> readout_value("CC[C@H](C)[C@H](NC(=O)[C@@H](NC(=O)[C@H](CC(C)C)N(C)C)[C@@H](Oc1ccc(C=O)cc1)c1ccccc1)C(=O)OC")
"<50 µg"

====

Entries and their Activity
Test system: Klebsiella pneumoniae
Test: Antibacterial activity against Klebsiella pneumoniae ATCC 10031 assessed as concentration required to inhibit bacterial growth after 24 hrs by TLC assay
Assay type: functional
MEASUREMENT KIND: Activity

>>> readout_value("COC(=O)[C@H](Cc1ccccc1)NC(=O)[C@@H](NC(=O)[C@@H](N)CC(C)C)[C@H](O)c1ccccc1")
"<50 µg"
>>> readout_value("COC(=O)[C@H](CC(C)C)NC(=O)[C@@H](NC(=O)[C@H](CC(C)C)N(C)C)[C@@H](Oc1ccc(C=O)cc1)c1ccccc1 (mixture of isomers)")
"<50 µg"
>>> readout_value("CC[C@H](C)[C@H](NC(=O)[C@H](NC(=O)[C@H](CC(C)C)N(C)C)[C@H](Oc1ccc(C=O)cc1)c1ccccc1)C(=O)OC")
"<50 µg"
>>> readout_value("COC(=O)[C@H](Cc1ccccc1)NC(=O)[C@H](NC(=O)[C@H](CC(C)C)N(C)C)[C@@H](O)c1ccccc1")
"<50 µg"
>>> readout_value("CC[C@H](C)[C@@H]1NC(=O)[C@@H](NC(=O)[C@H](CC(C)C)N(C)C)[C@H](c2ccccc2)Oc2ccc(cc2)/C=C\\NC1=O (mixture of isomers)")
">50 µg"
>>> readout_value("COC(=O)[C@H](CC(C)C)NC(=O)[C@H]([C@@H](Oc1ccc(C=O)cc1)c1ccccc1)N1CN(C)[C@@H](CC(C)C)C1=O (mixture of isomers)")
"<50 µg"

====

The entries below are paired with their reported Activity.
Tested on: Kocuria rhizophila
Test: Antibacterial activity against Micrococcus luteus ATCC 9341 assessed as concentration required to inhibit bacterial growth after 24 hrs by TLC assay
Type: functional
MEASUREMENT KIND: Activity

>>> readout_value("COC(=O)[C@H](Cc1ccccc1)NC(=O)[C@H](NC(=O)[C@@H](N)CC(C)C)[C@@H](O)c1ccccc1 (mixture of isomers)")
"<50 µg"
>>> readout_value("CC[C@H](C)[C@H](NC(=O)[C@H](NC(=O)[C@H](CC(C)C)N(C)C)[C@@H](O)c1ccccc1)C(=O)OC (mixture of isomers)")
"<50 µg"
>>> readout_value("COC(=O)[C@H](CC(C)C)NC(=O)[C@H](NC(=O)[C@H](CC(C)C)N(C)C)[C@@H](O)c1ccccc1 (mixture of isomers)")
"<50 µg"
>>> readout_value("CC(C)C[C@@H]1NC(=O)[C@@H](NC(=O)[C@H](CC(C)C)N(C)C)[C@H](c2ccccc2)Oc2ccc(cc2)/C=C\\NC1=O (mixture of isomers)")
">50 µg"
>>> readout_value("COC(=O)[C@H](Cc1ccccc1)NC(=O)[C@H](NC(=O)[C@H](CC(C)C)N(C)C)[C@H](Oc1ccc(C=O)cc1)c1ccccc1 (mixture of isomers)")
"<50 µg"
>>> readout_value("COC(=O)[C@H](Cc1ccccc1)NC(=O)[C@H]([C@H](O)c1ccccc1)N1CN(C)[C@@H](CC(C)C)C1=O")
"<50 µg"
